Here, each record is paired with measured melting point data.

Some molecules with recorded melting point:
- COc1ccc(C(=O)Nc2ccccc2)cc1NC(=S)Nc1ccc(Cl)c(Cl)c1: 174 to 175 °C
- COc1ccc(C(C)C)c(NC(=O)CN2CCN(CCCSc3nc4c(C)c(Cl)cc(C(C)C)c4o3)CC2)c1C(C)C: 126 to 127 °C
- CS(=O)(=O)Nc1ccc(C(=N)Nc2cc(Cl)cc(NC(=O)/C=C/c3ccccc3Cl)c2)cc1: 158 to 160 °C
- O=c1[nH]c2ccccc2n2cnc(-c3ccc(F)cc3)c12: > 300 °C
- CCOC(=O)c1ccc(Sc2cc3c(cc2C)C(C)(C)CCC3(C)C)cc1O: 74 to 75 °C

Challenge: Read the entry CON1C(C)(C)CC(OC(=O)C2=C(c3ccccc3)C(c3ccccc3)OC2=O)CC1(C)C (configuration not stated) and write its reported melting point.
Response given: 143 to 146 °C

Challenge: Read the entry CC1CC(C)C(C)(C)c2ccc(-c3cccc(-c4ccc(C(=O)O)cc4)c3O)cc21 (configuration not stated) and write its reported melting point.
Response given: 121 °C

Challenge: Read the entry `Cc1nn2ccccc2c1C=O` and write its reported melting point.
Response given: 77 to 79 °C

Challenge: Read the entry `O=C(NCC1(O)CCCCCC1)c1cc(-c2ccc(Cl)c(C(=O)O)n2)ccc1Cl` and write its reported melting point.
Response given: 146 to 149 °C

Challenge: Read the entry `ONCCc1ccccc1` and write its reported melting point.
Response given: 118 to 121 °C

Challenge: Read the entry `COc1ccc(Nc2cc(Cl)ccc2[N+](=O)[O-])cc1` and write its reported melting point.
Response given: 98 °C

Challenge: Read the entry `CC(C)S(=O)(=O)C(C#N)=Cc1c(Cl)n(C)c2ccccc12` and write its reported melting point.
Response given: 141 °C

Challenge: Read the entry `COc1cc(C(C)=O)ccc1OCCCCN1CCC(c2nsc3ccccc23)CC1` and write its reported melting point.
Response given: 78 to 80 °C

Challenge: Read the entry `N#Cc1cnn(Cc2ccccc2)c1` and write its reported melting point.
Response given: 61 to 63 °C

Challenge: Read the entry `COc1ccc(/C=C(\C#N)c2ccc(C(F)(F)F)cc2)cc1OC1CCCC1` and write its reported melting point.
Response given: 96 to 99 °C

Challenge: Read the entry `N#CNc1cc(F)ccc1-c1ccccc1` and write its reported melting point.
Response given: 68 to 70 °C

Challenge: Read the entry O=C1Nc2cc(Cl)ccc2C(=O)C1c1cccnc1 (configuration not stated) and write its reported melting point.
Response given: > 340 °C
